Each item that follows carries a reported percent of parent.
B1: unnamed (parent)
chain 1: DHQIRELTAKMETQSMYVSELKRTIRTLEDKVAEIEAQQCNGIYIWKIGNFGMHLKCQEEEKPVVIHSPGFYTGKPGYKLCMRLHLQLPTAQRCANYISLFVHTMQGEYDSHLPWPFQGTIRLTILDQSEAPVRQNHEEIMDAKPELLAFQRPTIPRNPKGFGYVTFMHLEALRQRTFIKDDTLLVRCEVSTRFDMGSLRREGFQPRSTDAGV
chain 2: LIWMYYHGQRHSDEHHHDDSLPHPQQATDDSGHESDSNSNEGRHHLLVSGAGDGPPLCSQNLGAPGGGPDNGPQDPDNTDDNGPQDPDNTDDNGPHDPLPQDPDNTDDNGPQDPDNTDDNGPHDPLPHSPSDSAGNDGGPPQLTEEVENKGGDQGPPLMTDGGGGHSHDSGHGGGDPHLPTLLLGSSGSGGDDDDPHGPVQLSYYD

Variants of: B1
test.method.notes: AlphaScreen
experimental.conditions: with partner chain of the complex shown; 100 nM His-TRAF6; parent: 100; read off a plot
State the answer as a number, implicitly in %.

What the record says about chain 2 Y205A : percent of parent is 47

Value of percent of parent reported for the variant chain 2 P199A is 18

Noted for chain 2 P24A Q26A T28A : its percent of parent reads 83

variant chain 2 L202A , percent of parent observed: 100

The variant listed as chain 2 G198A has a reported percent of parent of 75

The variant chain 2 Y204A showed percent of parent equal to 11

chain 2 V200A yielded percent of parent of 15

The reported percent of parent of the variant chain 2 S203A was 94

Lab note: measured percent of parent of chain 2 Q201A was 7

FYI, the data here is from paper PMC10776578.
